# credit: paper PMC5429769

Target: STAT5a SH2 domain (Homo sapiens)
Sequence (P42229 1-794): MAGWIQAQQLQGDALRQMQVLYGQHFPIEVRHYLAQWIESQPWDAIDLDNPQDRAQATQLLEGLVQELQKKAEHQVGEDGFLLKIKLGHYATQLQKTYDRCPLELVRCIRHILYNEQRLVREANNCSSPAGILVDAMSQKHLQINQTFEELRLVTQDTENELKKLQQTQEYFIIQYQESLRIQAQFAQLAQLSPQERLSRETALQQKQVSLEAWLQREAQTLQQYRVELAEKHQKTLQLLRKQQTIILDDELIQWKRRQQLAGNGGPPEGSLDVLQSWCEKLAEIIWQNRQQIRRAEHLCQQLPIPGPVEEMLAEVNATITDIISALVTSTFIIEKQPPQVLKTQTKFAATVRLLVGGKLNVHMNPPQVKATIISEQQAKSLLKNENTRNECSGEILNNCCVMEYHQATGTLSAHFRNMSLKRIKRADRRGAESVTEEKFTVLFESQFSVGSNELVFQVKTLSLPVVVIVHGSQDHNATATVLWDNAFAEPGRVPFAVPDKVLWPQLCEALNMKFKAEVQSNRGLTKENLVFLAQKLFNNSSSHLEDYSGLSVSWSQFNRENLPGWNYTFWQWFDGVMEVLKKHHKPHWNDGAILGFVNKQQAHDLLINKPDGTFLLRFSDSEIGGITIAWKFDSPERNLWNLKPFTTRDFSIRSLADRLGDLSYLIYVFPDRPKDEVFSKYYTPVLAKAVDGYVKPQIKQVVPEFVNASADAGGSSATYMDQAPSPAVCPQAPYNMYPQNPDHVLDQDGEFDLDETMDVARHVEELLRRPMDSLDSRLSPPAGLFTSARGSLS
reported endpoint: IC50 (nM)
Return type: number; implicit unit nM.

*Q* Reported IC50 for STAT5a SH2 domain (Homo sapiens), given O=C(COc1ccc(C(=O)Nc2ccc(Oc3ccccc3)cc2)cc1)NCc1ccc(OP(=O)(O)O)c(OP(=O)(O)O)c1 [compound 4] ?
*A* 2700
